# Tested On: hGLP1R (Homo sapiens)
# Construct: expressed in transfected cells; host or cells: HEK-293 cells carrying a CRE-luciferase reporter gene
# Sequence (P43220 24-463): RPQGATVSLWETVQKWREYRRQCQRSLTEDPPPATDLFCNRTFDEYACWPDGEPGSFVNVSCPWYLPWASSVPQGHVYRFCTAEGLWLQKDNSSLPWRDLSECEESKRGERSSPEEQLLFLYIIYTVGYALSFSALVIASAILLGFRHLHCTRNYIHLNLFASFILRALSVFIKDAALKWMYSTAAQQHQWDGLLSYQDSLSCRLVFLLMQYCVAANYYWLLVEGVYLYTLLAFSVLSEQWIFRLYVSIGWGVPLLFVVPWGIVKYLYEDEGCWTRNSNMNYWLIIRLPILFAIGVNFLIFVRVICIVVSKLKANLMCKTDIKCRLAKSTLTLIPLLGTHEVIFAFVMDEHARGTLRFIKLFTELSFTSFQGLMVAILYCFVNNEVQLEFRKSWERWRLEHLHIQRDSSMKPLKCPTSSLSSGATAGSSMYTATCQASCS
# Method Description: hGLP1R CreLuc reporter gene assay in 0.5% and 100% plasma
# Assay type: cell-based
# Assay Setup: CreLuc reporter gene assay, 100% human plasma; read-out: hGLP1R 100% hP
Starred links: 1 amine or outer side, 2 acyl side, 3 side chain; linkers in the order of their positions; H or OH if unused. Non-standard residues stand in square brackets, D forms with d. Groups on a side chain read outwards from the residue. *: point of attachment. C20 diacid = O=C(O)CCCCCCCCCCCCCCCCCCC(=O)*; C18 diacid = O=C(O)CCCCCCCCCCCCCCCCC(=O)*; γGlu = O=C(O)[C@H](CCC(=O)[*:2])N[*:1]; εLys = N[C@@H](CCCCN[*:1])C(=O)[*:2]; NMeR = CN[C@@H](CCCNC(=N)N)C(=O)O; hArg = N=C(N)NCCCC[C@H](N)C(=O)O; AEEA = NCCOCCOCC(=O)O; Aib = CC(C)(N)C(=O)O
This listing pairs substances with measured EC50.
Endpoint Label: EC50

substance="H-Y[Aib]EGTFTSDYSI[Aib]LEEEAQ[Aib]AFVEWLIK([εLys-γGlu-γGlu-γGlu-γGlu-γGlu-γGlu-C20 diacid])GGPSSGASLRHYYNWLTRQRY-NH2 [Compound 66]" tested_on="hGLP1R (Homo sapiens)" result="11.6 nM"
substance="H-Y[Aib]EGTFTSDYSI[Aib]LEKQAQ[Aib]AFVQWLIK([εLys-γGlu-γGlu-γGlu-γGlu-γGlu-C18 diacid])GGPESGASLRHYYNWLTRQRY-NH2 [Compound 60]" tested_on="hGLP1R (Homo sapiens)" result="1.69 nM"
substance="H-Y[Aib]EGTFTSDYSI[Aib]LEKQAQ[Aib]EFVQWLIK([γGlu-γGlu-γGlu-γGlu-γGlu-γGlu-C18 diacid])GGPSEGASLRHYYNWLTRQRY-NH2 [Compound 151]" tested_on="hGLP1R (Homo sapiens)" result="4.39 nM"
substance="H-Y[Aib]EGTFTSDYSI[Aib]LEAAKQ[Aib]AFVEWLIK([εLys-γGlu-γGlu-γGlu-γGlu-γGlu-γGlu-C20 diacid])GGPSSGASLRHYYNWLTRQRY-NH2 [Compound 25]" tested_on="hGLP1R (Homo sapiens)" result="14.2 nM"
substance="H-Y[Aib]EGTFTSDYSI[Aib]LEKQAQ[Aib]EFVEWLIK([AEEA-AEEA-γGlu-γGlu-γGlu-C18 diacid])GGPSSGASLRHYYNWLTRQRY-NH2 [Compound 171]" tested_on="hGLP1R (Homo sapiens)" result="4.17 nM"
substance="H-Y[Aib]EGTFTSDYSI[Aib]LEKQAQ[Aib]AFVQWLIK([εLys-γGlu-γGlu-γGlu-γGlu-γGlu-γGlu-C20 diacid])GGPSYYVSLRHYYNWLTRQRY-NH2 [Compound 19]" tested_on="hGLP1R (Homo sapiens)" result="10.2 nM"
substance="H-Y[Aib]EGTFTSDYSI[Aib]LEKQAQ[Aib]AFVEWLIK([εLys-γGlu-γGlu-γGlu-γGlu-γGlu-γGlu-C20 diacid])GGPSSGAS[Aib]RHYYNWLTRQ[NMeR]Y-NH2 [Compound 39]" tested_on="hGLP1R (Homo sapiens)" result="0.82 nM"
substance="H-Y[Aib]EGTFTSDYSI[Aib]LEKQAQ[Aib]AFVQWLIK([εLys-γGlu-γGlu-γGlu-γGlu-γGlu-C20 diacid])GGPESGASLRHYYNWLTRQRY-NH2 [Compound 61]" tested_on="hGLP1R (Homo sapiens)" result="3.95 nM"
substance="H-Y[Aib]EGTFTSDYSI[Aib]LEKQAQ[Aib]AFVQWLIK([εLys-γGlu-γGlu-γGlu-γGlu-γGlu-γGlu-C18 diacid])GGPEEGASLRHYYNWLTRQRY-NH2 [Compound 149]" tested_on="hGLP1R (Homo sapiens)" result="4.76 nM"
substance="H-Y[Aib]EGTFTSDYSI[Aib]LEKQAQ[Aib]AFVEWLIK([εLys-γGlu-γGlu-γGlu-γGlu-γGlu-γGlu-C20 diacid])GGPSSGASLRHYYNWLT[hArg]QR[dY]-NH2 [Compound 71]" tested_on="hGLP1R (Homo sapiens)" result="1.13 nM"

The measurements presented in this section are drawn from patent US20240247080A1.
